Assay explanation: NCI Yeast Anticancer Drug Screen. Data for the rad50 strain (AID 155);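 also: 0% = growth of vehicle-only cultures of the same strain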
Applied conditions: S. cerevisiae rad50 strain growth inhibition; at 50.0 µM; hits give high values
Compounds without any hit were thinned out: in the full panel of roughly 79,000, 15% have a hit.
Label rule, in plain words: growth inhibition of 90% and up is y, under 90% is n.

{"columns": ["Cpd smiles", "Label class"],
 "data": [
  ["CCN(CC)Cc1cc(N=Nc2c(O)ccc3c(N=Nc4ccc(O)c(CN(CC)CC)c4)c(O)ccc23)ccc1O", "y"],
  ["Oc1c(Br)cc(Cl)cc1C(c1cc(Cl)cc(Br)c1O)C(Cl)(Cl)Cl", "y"],
  ["c1ccc(CN2CCc3[nH]c4ccccc4c3C2)cc1", "n"],
  ["CNc1ccc(N)cc1", "n"],
  ["c1ccc(CSc2nnc3c4ccccc4c4ccccc4c3n2)cc1", "n"]
]}

====

Assay explanation: NCI Yeast Anticancer Drug Screen. Data for the sgs1 mgt1 strain (AID 161);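 also: 0% = growth of cultures given vehicle only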
Applied conditions: S. cerevisiae sgs1 mgt1 strain, at 50.0 µM, hits give high values
Compounds without any hit were thinned out: in the full panel of roughly 79,000, 15% have a hit.
Label rule, in plain words: growth inhibition of 70% and up is condition met, under 70% is condition not met.

{"columns": ["Compound", "Label class"],
 "data": [
  ["Clc1ccc(/C=C\\c2ccncc2)cc1", "condition not met"],
  ["CC(C)(C)C1=NC(=S)SC2=NC(=O)C3(NN21)c1ccccc1-c1ccccc13", "condition met"],
  ["CCOC(=O)/C(=C/c1ccc2ccccc2c1)P(=O)(OCC)OCC", "condition not met"],
  ["OC1(C2CCCCC2)c2ccccc2Cc2ccccc21", "condition met"],
  ["CCCCCCC(C)OC(=O)/C=C/c1ccccc1 (configuration not stated)", "condition not met"],
  ["Cc1cc(Cl)c2c(c1)C(=N/O)/C(=C\\c1ccco1)O2", "condition met"],
  ["CCOC(=O)C(C(=O)OCC)C1(c2ccccc2)OC(=O)c2ccccc21 (configuration not stated)", "condition not met"],
  ["COC(CCC[N+](C)(C)C)CC[N+](C)(C)C (configuration not stated)", "condition met"],
  ["O=[N+]([O-])c1ccc(NSc2ccccc2)cc1", "condition met"],
  ["CCOC(=O)c1c(Cl)c(CC)c(N=[N+]=[N-])n2c1nc1ccccc12", "condition not met"],
  ["CN(C)CC(CN(C)C)C(=O)c1ccc(Oc2ccc(Cl)c(Cl)c2)cc1", "condition met"]
]}

====

Assay explanation: NCI Yeast Anticancer Drug Screen. Data for the mlh1 rad18 strain (AID 175)
Applied conditions: S. cerevisiae mlh1 rad18 strain growth inhibition; at 50.0 µM; hits give high values
About 79,000 compounds went through this panel and 15% of them were active in at least one assay; those are over-represented in the sample as a whole.
Reported growth inhibition maps to class as: 1: < 60%; 2: ≥ 60% and < 90%; 3: ≥ 90%

{"columns": ["Molecule", "Label class"],
 "data": [
  ["Cc1[nH]c2ccccc2c1/C=C1\\C(=O)C2CCC1C2 (stereo unspecified)", 2],
  ["CC1=C(C(=O)Nc2cccc(Cl)c2)C(c2ccccc2O)C(C(=O)Nc2cccc(Cl)c2)=C(C)N1", 1],
  ["O=C(Nc1ccccc1)Oc1c(Cl)c(Cl)c(Cl)c(Cl)c1Cl", 2],
  ["CCCCCCN(CCCCCC)CC(O)c1cc(-c2ccccc2)nc2c(O)cccc12 (stereo unspecified)", 1],
  ["N#CC1Oc2ccccc2N1C(=O)c1ccccc1 (stereo unspecified)", 2],
  ["CCC(CC)(C(=O)Nc1ccc2c(c1)c(=O)c1ccccc1n2C)C(=O)Nc1ccc2c(c1)c(=O)c1ccccc1n2C", 3],
  ["Cc1ccc(C)c(N2C(=O)C(=O)C(c3nc4ccccc4o3)C(=O)C2=O)c1", 3],
  ["CC1CC(C)C(C)C(CO)C1 (stereo unspecified)", 1],
  ["Nc1ccc(SSc2ccc(N)cc2)cc1", 3]
]}
